system: OVCAR-5 ovarian; experiment: NCI tumour cell line growth inhibition, 48 h
recorded_metric: TGI

[
  {
    "compound": "N/C(=N/O)NOCCC(N)C(=O)O (stereo unspecified)",
    "recorded_metric": "TGI",
    "result": "> 100 µM"
  },
  {
    "compound": "Nc1ccc2ncc(NCc3ccc(F)cc3)nc2c1",
    "recorded_metric": "TGI",
    "result": "> 100 µM"
  },
  {
    "compound": "O=C(Nc1ccc(-c2cn3ccccc3n2)cc1)c1cc(Br)ccc1O",
    "recorded_metric": "TGI",
    "result": "> 100 µM"
  },
  {
    "compound": "CC(=O)Nc1ccc2c(c1)[nH]c(=O)c1cc(NC(C)=O)ccc12",
    "recorded_metric": "TGI",
    "result": "> 100 µM"
  },
  {
    "compound": "COc1ccc(/C=N/NC(=O)NCCNCCO)cc1",
    "recorded_metric": "TGI",
    "result": "> 100 µM"
  },
  {
    "compound": "CCCN1CCN(c2ccc3nc(-c4ccc5nc(-c6ccc(OCC)cc6)[nH]c5c4)[nH]c3c2)CC1",
    "recorded_metric": "TGI",
    "result": "3.36 µM"
  },
  {
    "compound": "CC(C)Cc1cc(-c2cccn2C)c(C#N)c(=O)[nH]1",
    "recorded_metric": "TGI",
    "result": "> 100 µM"
  },
  {
    "compound": "O=C(Nc1ccn(C2CCC(COC(c3ccccc3)(c3ccccc3)c3ccccc3)O2)c(=O)n1)c1ccccc1 (stereo unspecified)",
    "recorded_metric": "TGI",
    "result": "7.95 µM"
  },
  {
    "compound": "COC(=O)[C@@]1(Cc2ccc(OC(C)=O)cc2)Cc2cc3ccccc3n2N1",
    "recorded_metric": "TGI",
    "result": "> 100 µM"
  },
  {
    "compound": "Cc1c(-c2c(F)cc(C(N)=O)c3[nH]c4c(c23)CC[C@H](C(C)(C)O)C4)cccc1-n1c(=O)c2cccc(F)c2n(C)c1=O",
    "recorded_metric": "TGI",
    "result": "> 100 µM"
  },
  {
    "compound": "COc1cc2ccnc3c2c(c1OC)N(C)C=C3",
    "recorded_metric": "TGI",
    "result": "> 100 µM"
  }
]
